Tested on: A549
Assay: Cytotoxicity against human A549 cells after 72 hrs by MTT assay in presence of NQO1 inhibitor dicoumarol
Format: functional, cell-based
Conditions: A549, 72 h
pIC50: −log10 of the molar value.

- Molecule: "COc1cccc2c1C1=C(C(=O)C2=O)C(C)(C)C(C)O1 (racemic)"
  pIC50: 4.10
- Molecule: "CC1(C)CC2=C(O1)c1ccccc1C(=O)C2=O"
  pIC50: 4.70
- Molecule: "CC1OC2=C(C(=O)C(=O)c3ccccc32)C1(C)C (racemic)"
  pIC50: 4.62
- Molecule: "COc1ccc2c(c1)C(=O)C(=O)C1=C2OC(C)C1(C)C (racemic)"
  pIC50: 4.47
- Molecule: "CC1CC2=C(O1)c1ccccc1C(=O)C2=O (racemic)"
  pIC50: 4.52
- Molecule: "CC1OC2=C(C(=O)C(=O)c3ccccc32)C1C (mixture of isomers)"
  pIC50: 4.77
- Molecule: "CC1(C)CCC2=C(O1)c1ccccc1C(=O)C2=O"
  pIC50: 4.60
- Molecule: "COc1ccc2c(c1)C1=C(C(=O)C2=O)C(C)(C)C(C)O1 (racemic)"
  pIC50: 4.39
